# STUDY SYSTEM: truncated PI3Kα (p110α/iSH2 p85α) (Homo sapiens (Human), UniProt P42336)
# Sequence (P42336 whole entry, the tested form may be a part): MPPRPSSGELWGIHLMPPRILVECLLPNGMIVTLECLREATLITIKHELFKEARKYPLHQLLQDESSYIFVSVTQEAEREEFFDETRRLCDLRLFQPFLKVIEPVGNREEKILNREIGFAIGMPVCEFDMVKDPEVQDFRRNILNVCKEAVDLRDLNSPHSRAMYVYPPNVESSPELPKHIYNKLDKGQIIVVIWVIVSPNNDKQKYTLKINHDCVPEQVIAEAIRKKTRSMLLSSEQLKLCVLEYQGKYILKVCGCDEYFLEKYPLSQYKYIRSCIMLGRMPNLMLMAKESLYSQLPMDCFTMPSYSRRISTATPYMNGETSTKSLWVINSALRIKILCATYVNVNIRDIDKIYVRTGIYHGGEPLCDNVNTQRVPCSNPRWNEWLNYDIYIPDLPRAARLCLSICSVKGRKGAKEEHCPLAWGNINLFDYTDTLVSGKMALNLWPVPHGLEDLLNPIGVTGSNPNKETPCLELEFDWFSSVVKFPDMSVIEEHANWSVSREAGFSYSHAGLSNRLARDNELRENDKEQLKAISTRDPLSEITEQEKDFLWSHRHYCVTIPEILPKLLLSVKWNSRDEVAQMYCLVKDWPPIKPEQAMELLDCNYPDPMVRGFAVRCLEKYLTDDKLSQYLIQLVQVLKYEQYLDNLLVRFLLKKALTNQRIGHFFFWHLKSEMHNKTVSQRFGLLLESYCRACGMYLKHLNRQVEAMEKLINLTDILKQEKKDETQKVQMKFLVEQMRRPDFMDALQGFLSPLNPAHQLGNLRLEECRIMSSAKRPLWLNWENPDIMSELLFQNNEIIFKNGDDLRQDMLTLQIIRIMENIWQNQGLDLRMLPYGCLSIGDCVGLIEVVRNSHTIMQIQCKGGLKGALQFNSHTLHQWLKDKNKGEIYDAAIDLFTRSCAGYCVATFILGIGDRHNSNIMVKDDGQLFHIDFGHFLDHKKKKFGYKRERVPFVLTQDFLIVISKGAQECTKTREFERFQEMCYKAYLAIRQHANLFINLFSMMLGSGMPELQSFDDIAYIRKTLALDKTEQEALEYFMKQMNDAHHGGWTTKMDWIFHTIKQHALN
# PROTOCOL DETAILS: PI3KA_Act fluorescence polarization kinase assay (Ki)
# Type: biochemical
# TEST SETTINGS: 1 mM ATP
# PI3KA_Act Ki per entry
Use pM as the unit, but write only the number.

The examples below pair each entry with its known result.
- COMPOUND: "C[C@H]1COCCN1c1nc(-c2cnc(N)nc2)c2c(n1)N(C1(C)CCCN(C(=O)OC(C)(C)C)C1)CC2 (stereo partly drawn)"
  PI3KA_Act Ki (pM): 663
- COMPOUND: "CN[C@H]1C[C@H](N2CCc3c(-c4cnc(N)nc4)nc(N4CCOC[C@@H]4C)nc32)C1.Cl"
  PI3KA_Act Ki (pM): 993
- COMPOUND: "CCS(=O)(=O)N1CC(C)(N2CCc3c(-c4cnc(N)nc4)nc(N4CCOCC4)nc32)C1"
  PI3KA_Act Ki (pM): 24
- COMPOUND: "COC(=O)N1CC(C)(N2CCc3c(-c4cnc(N)nc4)nc(N4CCOC[C@@H]4C)nc32)C1"
  PI3KA_Act Ki (pM): 47
- COMPOUND: "C[C@H]1COCCN1c1nc(-c2cnc(N)nc2)c2c(n1)N(C1CN(C(=O)C(C)(C)O)C1)CC2"
  PI3KA_Act Ki (pM): 387
- COMPOUND: "CCS(=O)(=O)N1CC[C@H](N2CCc3c(-c4cnc(N)nc4)nc(N4CCOCC4)nc32)C1"
  PI3KA_Act Ki (pM): 93
- COMPOUND: "C[C@H]1COCCN1c1nc(-c2cnc(N)nc2)c2c(n1)N([C@@]13CNC[C@@H]1C3)CC2.Cl"
  PI3KA_Act Ki (pM): 595
- COMPOUND: "CNC(=O)N1CC[C@](C)(N2CCc3c(-c4cnc(N)nc4)nc(N4CCOC[C@@H]4C)nc32)C1"
  PI3KA_Act Ki (pM): 61
- COMPOUND: "COCCS(=O)(=O)N1CC(N2CCc3c(-c4cnc(N)nc4)nc(N4CCOCC4)nc32)C1"
  PI3KA_Act Ki (pM): 124
- COMPOUND: "CNC(=O)N1CC[C@](C)(N2CCc3c(-c4cnc(N)nc4)nc(N4CCOCC4)nc32)C1"
  PI3KA_Act Ki (pM): 124

Problem: Give the measured PI3KA_Act Ki for `Nc1ncc(-c2nc(N3CCOCC3)nc3c2CCN3C2CN(S(=O)(=O)CC3CC3)C2)cn1`
Solution: 129
